# Test system: ATP;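 further: ATP exposure 15 min at 22 °C before imaging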
# assay-name: switch fluorescence ratio, 500 uM ATP over buffer (Cy3 cluster intensity, sum of 5 cycles each) (fold (ratio)); higher = stronger signal-on switching upon ATP binding; sequences stand for … in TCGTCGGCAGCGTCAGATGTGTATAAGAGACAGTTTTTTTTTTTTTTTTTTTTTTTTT…TC
# test-settings: aptamer strand: ATP DNA aptamer (quencher-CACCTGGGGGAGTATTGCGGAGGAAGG + anchor), 100 nM annealed; ATP concentration: 500 uM
# switch fluorescence ratio >= 1 gives met, anything below gives not met

INSERT INTO measurements (construct_sequence, system, assigned_class) VALUES
  ('CGTTACGTAG', 'ATP', 'met'),
  ('CACCGAAATG', 'ATP', 'met'),
  ('TTAATATTCT', 'ATP', 'not met'),
  ('CAATGGGACG', 'ATP', 'met'),
  ('CGATTAACTC', 'ATP', 'met'),
  ('TTAGGGGGCG', 'ATP', 'met');

---

Entries and their switch fluorescence ratio values follow.
# Tested on: ATP;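 further: ATP exposure 15 min at 22 °C before imaging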
# assay-name: switch fluorescence ratio, 500 uM ATP over buffer (Cy3 cluster intensity, sum of 5 cycles each) (fold (ratio)); higher = stronger signal-on switching upon ATP binding; sequences stand for … in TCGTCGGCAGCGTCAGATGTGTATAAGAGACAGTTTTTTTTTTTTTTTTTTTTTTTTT…TC
# test-settings: aptamer strand: ATP DNA aptamer (quencher-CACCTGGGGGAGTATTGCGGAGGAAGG + anchor), 100 nM annealed; ATP concentration: 500 uM
readout: switch fluorescence ratio

INSERT INTO results (construct_sequence, system, readout, observed_result) VALUES
  ('GACTTAGGTA', 'ATP', 'switch fluorescence ratio', 0.975),
  ('CTATACGGTA', 'ATP', 'switch fluorescence ratio', 1.13),
  ('CTGGGGAAAG', 'ATP', 'switch fluorescence ratio', 1.02),
  ('ACGTAGTGCG', 'ATP', 'switch fluorescence ratio', 1),
  ('CCGGGGGGGC', 'ATP', 'switch fluorescence ratio', 1.32),
  ('CGGTGGTTGC', 'ATP', 'switch fluorescence ratio', 1.03),
  ('TAATCGATAT', 'ATP', 'switch fluorescence ratio', 0.98),
  ('GCATTGGTGG', 'ATP', 'switch fluorescence ratio', 1.03),
  ('GTTATAGGCT', 'ATP', 'switch fluorescence ratio', 0.999),
  ('AAAGAGTTGC', 'ATP', 'switch fluorescence ratio', 0.978),
  ('ACGAAAATTT', 'ATP', 'switch fluorescence ratio', 1.05),
  ('AGTTTCGGTA', 'ATP', 'switch fluorescence ratio', 0.977),
  ('GTATTAGTAA', 'ATP', 'switch fluorescence ratio', 1.01),
  ('TTTACGTAGG', 'ATP', 'switch fluorescence ratio', 1),
  ('TCATCTACTT', 'ATP', 'switch fluorescence ratio', 1.02),
  ('TTTACGATTA', 'ATP', 'switch fluorescence ratio', 1.14),
  ('CAGAGGGGTA', 'ATP', 'switch fluorescence ratio', 1.01),
  ('TGAAATTACT', 'ATP', 'switch fluorescence ratio', 1.05),
  ('TTAAGCACAT', 'ATP', 'switch fluorescence ratio', 1.2),
  ('GGGAGGTTCT', 'ATP', 'switch fluorescence ratio', 0.974),
  ('TCTGGGGGAA', 'ATP', 'switch fluorescence ratio', 1.06),
  ('ATCAAAACTT', 'ATP', 'switch fluorescence ratio', 1.03),
  ('CAAGTGGCAT', 'ATP', 'switch fluorescence ratio', 1.02),
  ('AGATGTGAGC', 'ATP', 'switch fluorescence ratio', 1.03),
  ('GAGTTTGTTG', 'ATP', 'switch fluorescence ratio', 0.985),
  ('AATCAGCGGT', 'ATP', 'switch fluorescence ratio', 1.02),
  ('GGGAAAACGC', 'ATP', 'switch fluorescence ratio', 1.02),
  ('TGTTATAAAC', 'ATP', 'switch fluorescence ratio', 1.02),
  ('GAGGCCATTT', 'ATP', 'switch fluorescence ratio', 1.01),
  ('TTGATTGACA', 'ATP', 'switch fluorescence ratio', 1),
  ('TTTGCTGTTT', 'ATP', 'switch fluorescence ratio', 1.01),
  ('TACTGATAGG', 'ATP', 'switch fluorescence ratio', 1.02),
  ('TTTGATGTTT', 'ATP', 'switch fluorescence ratio', 1),
  ('TTCCGAAAAT', 'ATP', 'switch fluorescence ratio', 1.01),
  ('GTCATTTGTA', 'ATP', 'switch fluorescence ratio', 0.981),
  ('AGCGTCTTGC', 'ATP', 'switch fluorescence ratio', 1.01),
  ('CATTTCTGAG', 'ATP', 'switch fluorescence ratio', 1.01),
  ('GCGAAAGGT', 'ATP', 'switch fluorescence ratio', 0.985),
  ('ACGGGGGAGG', 'ATP', 'switch fluorescence ratio', 1.02),
  ('AATATGTGTG', 'ATP', 'switch fluorescence ratio', 0.979),
  ('TTAGTCCAGA', 'ATP', 'switch fluorescence ratio', 1.01),
  ('TAACATCTGT', 'ATP', 'switch fluorescence ratio', 0.975),
  ('AAAGAGAAGT', 'ATP', 'switch fluorescence ratio', 1.02),
  ('CGGCAAGTGC', 'ATP', 'switch fluorescence ratio', 2.19),
  ('ATCCTAATGG', 'ATP', 'switch fluorescence ratio', 0.983),
  ('ACATGCACGG', 'ATP', 'switch fluorescence ratio', 1.27),
  ('AATACGAGTC', 'ATP', 'switch fluorescence ratio', 1.09),
  ('GATTTAGGTG', 'ATP', 'switch fluorescence ratio', 1.12),
  ('TAATGTAATG', 'ATP', 'switch fluorescence ratio', 0.999),
  ('GGTATGGATA', 'ATP', 'switch fluorescence ratio', 1),
  ('ATATGTGTGA', 'ATP', 'switch fluorescence ratio', 0.968),
  ('GGCTCGGGAC', 'ATP', 'switch fluorescence ratio', 1.01),
  ('AGAGGGTTGC', 'ATP', 'switch fluorescence ratio', 0.978),
  ('AGATGATAGG', 'ATP', 'switch fluorescence ratio', 1.03),
  ('AGGGTTTGTG', 'ATP', 'switch fluorescence ratio', 1.11),
  ('CGTAGACGGT', 'ATP', 'switch fluorescence ratio', 0.959),
  ('TATCAAATTG', 'ATP', 'switch fluorescence ratio', 1.02),
  ('ATAGTCAAAG', 'ATP', 'switch fluorescence ratio', 0.998),
  ('GGGTCCACAG', 'ATP', 'switch fluorescence ratio', 1.01),
  ('GGGTAGGGGG', 'ATP', 'switch fluorescence ratio', 0.989),
  ('AAGAGGTAGT', 'ATP', 'switch fluorescence ratio', 1.02),
  ('GCGGAAGATC', 'ATP', 'switch fluorescence ratio', 1.03),
  ('TGAGGGGGCG', 'ATP', 'switch fluorescence ratio', 1.03),
  ('CGGGTTGTGT', 'ATP', 'switch fluorescence ratio', 1),
  ('ATCGACGGG', 'ATP', 'switch fluorescence ratio', 1.01),
  ('CGGTATTTAC', 'ATP', 'switch fluorescence ratio', 1.04),
  ('TATGCGGTCC', 'ATP', 'switch fluorescence ratio', 1.02),
  ('CTGTTAAAGG', 'ATP', 'switch fluorescence ratio', 0.999),
  ('GGCATCGGAC', 'ATP', 'switch fluorescence ratio', 1.04),
  ('CGATCACCTG', 'ATP', 'switch fluorescence ratio', 1.02),
  ('TATGTTAATG', 'ATP', 'switch fluorescence ratio', 0.999),
  ('GGGTCAGGTA', 'ATP', 'switch fluorescence ratio', 0.996),
  ('AAAAGGGAGC', 'ATP', 'switch fluorescence ratio', 1.14),
  ('GGAGATTGGT', 'ATP', 'switch fluorescence ratio', 0.983),
  ('GTTCGGGGTT', 'ATP', 'switch fluorescence ratio', 1.01),
  ('AGAGGTAGTA', 'ATP', 'switch fluorescence ratio', 1.02),
  ('CGGTCTGTGG', 'ATP', 'switch fluorescence ratio', 0.995);
